Quick reference: AC50 of the listed items.
- TEST_TARGET: Caspase-6 (Homo sapiens)
- Sequence (P55212 whole entry): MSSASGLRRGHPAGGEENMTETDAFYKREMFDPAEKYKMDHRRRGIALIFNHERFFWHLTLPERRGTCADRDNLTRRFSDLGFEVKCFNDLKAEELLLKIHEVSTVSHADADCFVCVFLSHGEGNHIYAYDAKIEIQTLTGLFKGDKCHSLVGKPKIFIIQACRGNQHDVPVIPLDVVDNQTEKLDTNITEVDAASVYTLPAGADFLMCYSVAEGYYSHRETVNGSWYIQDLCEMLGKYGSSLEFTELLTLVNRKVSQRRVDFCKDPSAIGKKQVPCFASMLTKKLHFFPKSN
- METHOD_SUMMARY: human caspase-6 inhibitors, dose response, biochemical, VEID-R110 fluorescence, cherry-pick (AID 720632)
Activity calls are given as the source filed them.

The following molecules have reported results that may help.
MOLECULE	MEASUREMENT_TYPE	RECORDED_RESULT
Cc1ccccc1CN1[C@@H](C)[C@H](c2ccccc2)Oc2cccc(NCC(C)C)c2S1(=O)=O	AC50	23.3 µM (active)
Cc1ccccc1S(=O)(=O)N1[C@@H]2CNC[C@H]1[C@@H]2c1ccc(-c2ccc(C#N)cc2)cc1	AC50	30.9 µM (active)

// moving on: another record for AC50
I am curious: what AC50 value has been reported for "Oc1nc(Nc2ccccc2)cc2cc(Br)ccc12" ?
6.04 µM (active)

---

- TEST_TARGET: Fatty acid synthase (Homo sapiens, UniProt P49327)
- Sequence (P49327 whole entry, the tested form may be a part): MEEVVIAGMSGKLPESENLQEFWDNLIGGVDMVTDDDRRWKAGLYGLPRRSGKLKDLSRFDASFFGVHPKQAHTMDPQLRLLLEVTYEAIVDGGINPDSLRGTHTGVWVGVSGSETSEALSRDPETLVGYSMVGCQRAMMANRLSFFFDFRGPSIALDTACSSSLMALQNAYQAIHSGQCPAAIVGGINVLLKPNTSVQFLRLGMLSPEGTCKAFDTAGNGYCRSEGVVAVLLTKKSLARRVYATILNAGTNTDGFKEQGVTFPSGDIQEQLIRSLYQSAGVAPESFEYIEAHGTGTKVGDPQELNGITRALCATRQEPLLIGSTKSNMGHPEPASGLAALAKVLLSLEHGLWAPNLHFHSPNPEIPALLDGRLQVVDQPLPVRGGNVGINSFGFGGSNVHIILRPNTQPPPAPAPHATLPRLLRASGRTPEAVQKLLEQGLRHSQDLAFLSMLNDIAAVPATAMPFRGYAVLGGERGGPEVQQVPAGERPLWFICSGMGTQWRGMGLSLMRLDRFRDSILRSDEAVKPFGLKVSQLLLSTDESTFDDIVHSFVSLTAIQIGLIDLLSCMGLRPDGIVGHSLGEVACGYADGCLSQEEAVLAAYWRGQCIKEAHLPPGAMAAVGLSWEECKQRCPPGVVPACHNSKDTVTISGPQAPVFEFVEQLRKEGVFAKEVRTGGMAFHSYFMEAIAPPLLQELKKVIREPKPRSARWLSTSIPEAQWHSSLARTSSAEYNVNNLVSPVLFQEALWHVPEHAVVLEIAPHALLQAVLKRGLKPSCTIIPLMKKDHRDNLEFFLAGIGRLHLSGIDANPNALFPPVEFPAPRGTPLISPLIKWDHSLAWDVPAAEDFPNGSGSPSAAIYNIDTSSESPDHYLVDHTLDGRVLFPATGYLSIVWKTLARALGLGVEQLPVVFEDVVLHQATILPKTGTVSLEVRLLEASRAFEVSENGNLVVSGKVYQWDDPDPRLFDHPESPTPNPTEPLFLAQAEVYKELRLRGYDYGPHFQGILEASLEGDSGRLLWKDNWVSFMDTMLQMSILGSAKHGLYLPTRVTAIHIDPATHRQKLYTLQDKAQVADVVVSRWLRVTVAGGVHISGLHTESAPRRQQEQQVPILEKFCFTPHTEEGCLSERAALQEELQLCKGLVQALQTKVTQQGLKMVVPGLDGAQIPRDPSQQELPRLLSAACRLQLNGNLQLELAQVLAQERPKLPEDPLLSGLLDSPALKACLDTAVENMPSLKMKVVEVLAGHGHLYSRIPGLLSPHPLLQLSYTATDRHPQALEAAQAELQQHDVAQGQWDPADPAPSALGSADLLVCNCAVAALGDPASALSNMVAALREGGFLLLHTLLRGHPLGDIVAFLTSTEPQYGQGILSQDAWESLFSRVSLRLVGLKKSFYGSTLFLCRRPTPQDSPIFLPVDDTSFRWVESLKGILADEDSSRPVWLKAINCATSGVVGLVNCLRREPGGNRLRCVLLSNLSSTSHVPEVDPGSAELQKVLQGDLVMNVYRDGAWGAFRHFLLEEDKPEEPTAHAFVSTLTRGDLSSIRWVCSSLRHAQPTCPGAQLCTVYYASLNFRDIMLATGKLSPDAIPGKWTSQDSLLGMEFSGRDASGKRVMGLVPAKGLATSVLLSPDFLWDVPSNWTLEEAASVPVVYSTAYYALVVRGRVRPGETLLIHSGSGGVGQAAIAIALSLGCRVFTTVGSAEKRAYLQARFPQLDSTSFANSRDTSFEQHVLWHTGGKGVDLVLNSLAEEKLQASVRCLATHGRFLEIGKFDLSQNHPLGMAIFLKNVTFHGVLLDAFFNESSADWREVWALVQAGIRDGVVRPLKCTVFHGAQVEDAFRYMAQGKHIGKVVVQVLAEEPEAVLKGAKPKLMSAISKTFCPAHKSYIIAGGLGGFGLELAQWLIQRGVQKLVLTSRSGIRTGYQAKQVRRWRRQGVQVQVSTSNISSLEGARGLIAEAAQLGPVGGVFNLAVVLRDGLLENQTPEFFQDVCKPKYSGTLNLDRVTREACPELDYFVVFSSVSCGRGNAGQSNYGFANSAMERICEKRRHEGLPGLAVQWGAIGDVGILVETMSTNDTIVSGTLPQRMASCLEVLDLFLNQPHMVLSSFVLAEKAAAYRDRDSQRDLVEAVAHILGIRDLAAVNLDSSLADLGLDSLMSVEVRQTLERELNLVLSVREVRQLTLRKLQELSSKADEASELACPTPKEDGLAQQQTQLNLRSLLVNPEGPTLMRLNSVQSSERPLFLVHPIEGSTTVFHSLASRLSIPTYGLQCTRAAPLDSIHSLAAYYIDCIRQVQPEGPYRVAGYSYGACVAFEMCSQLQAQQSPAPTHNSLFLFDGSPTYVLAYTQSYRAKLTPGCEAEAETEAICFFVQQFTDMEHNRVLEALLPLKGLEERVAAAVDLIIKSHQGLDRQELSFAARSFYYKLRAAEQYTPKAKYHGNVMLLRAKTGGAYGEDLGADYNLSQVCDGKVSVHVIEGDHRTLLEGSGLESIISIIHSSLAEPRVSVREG
- METHOD_SUMMARY: FAS thioesterase domain inhibitors, dose response, biochemical, kinetic fluorescence intensity (AID 624326);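 also: rate of fluorescence rise from hydrolysis of a fluorogenic O-methyl fluorescein ester substrate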
- Type: functional
The source made the active and inactive calls.
Entry note: the call must match one of label 1 for active, label 0 for inactive

Entry "Cc1ccc([N+](=O)[O-])cc1S(=O)(=O)Nc1ccc(-c2ccc(N3CCCC3)nn2)cc1" : call = ?
label 1

---

- Tested on: P388/ADR
- METHOD_SUMMARY: cells
- Type: functional
- EXPERIMENTAL_PARAMETERS: Mus musculus
The source made the active and inactive calls.
Entry note: the call must match one of Y = active, N = inactive

Study these solved cases before continuing.
COMPOUND	CLASSIFICATION
CC(C)C1NC(=O)CC(c2ccccc2)N(N=O)C1c1ccccc1 (stereo not given)	N
CO/C=C1\OC(=O)C=C1OC	N
COc1ccc(C2C(C)C(=O)C(C)C(c3ccc(OC)cc3)N2N=O)cc1 (stereo not given)	N
Cc1c2cc[n+](C)c(C)c2cc2c1[nH]c1ccccc12	N

Entry "CC(=O)O[C@H]1C(=O)[C@@]2(C)[C@H]([C@H](OC(=O)c3ccccc3)[C@]3(O)C[C@H](OC(=O)[C@H](O)[C@@H](NC(=O)c4ccccc4)c4ccccc4)C(C)=C1C3(C)C)[C@]1(OC(C)=O)CO[C@@H]1C[C@@H]2O" : call = ?
Y

---

- TEST_TARGET: Sentrin-specific protease 6 (Homo sapiens, UniProt Q9GZR1);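 also: Luminescence-based dose-response confirmatory assay of SENP6 inhibition, following up an ultra-high-throughput screen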
- Sequence (Q9GZR1 whole entry): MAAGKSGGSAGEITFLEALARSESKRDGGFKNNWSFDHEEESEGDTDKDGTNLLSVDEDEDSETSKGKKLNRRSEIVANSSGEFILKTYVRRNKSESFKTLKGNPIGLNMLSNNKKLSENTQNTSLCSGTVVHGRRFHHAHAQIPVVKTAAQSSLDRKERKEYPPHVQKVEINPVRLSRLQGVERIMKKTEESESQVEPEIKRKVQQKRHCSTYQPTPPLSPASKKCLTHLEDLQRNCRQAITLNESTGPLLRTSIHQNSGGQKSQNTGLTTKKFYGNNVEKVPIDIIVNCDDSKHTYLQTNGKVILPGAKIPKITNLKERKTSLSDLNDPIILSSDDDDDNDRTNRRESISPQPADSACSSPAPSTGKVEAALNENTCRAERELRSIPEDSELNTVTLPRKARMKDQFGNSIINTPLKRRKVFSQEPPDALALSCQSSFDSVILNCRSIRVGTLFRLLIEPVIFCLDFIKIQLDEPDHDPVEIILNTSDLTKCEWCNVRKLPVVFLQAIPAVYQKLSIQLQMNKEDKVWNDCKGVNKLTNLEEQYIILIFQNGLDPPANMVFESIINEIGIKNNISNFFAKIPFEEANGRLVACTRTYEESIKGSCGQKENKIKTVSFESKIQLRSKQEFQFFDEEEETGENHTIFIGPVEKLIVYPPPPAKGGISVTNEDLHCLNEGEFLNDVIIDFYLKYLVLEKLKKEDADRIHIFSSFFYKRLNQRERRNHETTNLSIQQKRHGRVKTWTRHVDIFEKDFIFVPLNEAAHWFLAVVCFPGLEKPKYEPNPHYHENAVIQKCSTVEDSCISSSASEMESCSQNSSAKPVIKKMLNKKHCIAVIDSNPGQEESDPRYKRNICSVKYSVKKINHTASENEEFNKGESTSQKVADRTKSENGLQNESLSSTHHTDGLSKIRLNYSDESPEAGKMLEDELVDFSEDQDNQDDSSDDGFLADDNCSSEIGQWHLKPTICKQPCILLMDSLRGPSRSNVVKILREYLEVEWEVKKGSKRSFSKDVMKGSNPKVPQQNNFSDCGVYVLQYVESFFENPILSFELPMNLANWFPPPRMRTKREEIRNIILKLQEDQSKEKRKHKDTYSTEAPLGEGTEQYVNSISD
- Assay type: functional
Activity calls are given as the source filed them.
Entry note: the call must match one of active, inactive

Study these solved cases before continuing.
COMPOUND	CLASSIFICATION
CCOC(=O)c1ccc(-c2ccc3c(c2)CCC3)nc1C	active
CC(C)Oc1ccc2c(=O)c(-c3ccccc3)coc2c1 [IPRIFLAVONE]	active
CCc1ccc(OCC(=O)N/N=C2\CC(=O)c3ccccc32)cc1	active
O=C(Nc1nnc(C(F)(F)F)s1)c1ccc(Br)s1	active
CCOc1ccc(/C=C2\CCc3ccccc3C2=O)cc1	active

Entry "Cc1ccc(C(=O)Nc2ccc3c(c2)OCO3)cc1Cl" : call = ?
inactive

Entry "CCCCn1c(NC(=O)c2ccccc2Cl)c(C#N)c2nc3ccccc3nc21" : call = ?
active

---

Quick reference: EC50 of the listed items.
- Test system: Streptococcus sp. 'group A'
- METHOD_SUMMARY: growth inhibition of control SK(-) GAS strain, dose response, counter-screen for streptokinase expression inhibitor project, luminescence, kanamycin, BacTiterGlo, confirmation (AID 1900)
- Assay type: functional, organism-based
The source made the active and inactive calls.

The following compounds have reported results that may help.
COMPOUND	EC50
Cc1cc(C(F)(F)F)c2c(n1)sc1c(O)cc(O)nc12	27.8 µM (active)
Cc1ccccc1OCC(=O)Nc1ccccc1N1CCCCC1	9.64 µM (active)
COc1ccc(S(=O)(=O)NCC(c2ccc(F)cc2)N2CCN(C)CC2)cc1 (centres undefined)	> 150 µM (not active)
O=c1cc2c(nn1Cc1ccc(Cl)cc1Cl)-c1ccccc1CC2	7.36 µM (active)
CCCCN(C)S(=O)(=O)c1ccc(C(=O)Nc2nnc(-c3cccs3)o2)cc1	0.68 µM (active)

I am curious: what EC50 value has been reported for "O=C(OCc1ccccc1)c1cccc(-c2nnn(Cc3ccccc3)n2)c1" ?
> 150 µM (not active)

I am curious: what EC50 value has been reported for "CCOC(=O)c1cc(-c2ccc3c(c2)OCCO3)nc2c1c(C)nn2CCC#N" ?
4.49 µM (active)

I am curious: what EC50 value has been reported for "CCOC(=O)c1sc(NC(=O)c2cc(-c3ccccc3C)nc3ccccc23)c(C#N)c1C" ?
1.04 µM (active)

I am curious: what EC50 value has been reported for "O=C1C(=O)c2ccccc2-c2ccccc21" ?
1.33 µM (active)

---

Quick reference: AC50 of the listed items.
- TEST_TARGET: Paired box protein Pax-8 (Homo sapiens, UniProt Q06710)
- Sequence (Q06710 whole entry): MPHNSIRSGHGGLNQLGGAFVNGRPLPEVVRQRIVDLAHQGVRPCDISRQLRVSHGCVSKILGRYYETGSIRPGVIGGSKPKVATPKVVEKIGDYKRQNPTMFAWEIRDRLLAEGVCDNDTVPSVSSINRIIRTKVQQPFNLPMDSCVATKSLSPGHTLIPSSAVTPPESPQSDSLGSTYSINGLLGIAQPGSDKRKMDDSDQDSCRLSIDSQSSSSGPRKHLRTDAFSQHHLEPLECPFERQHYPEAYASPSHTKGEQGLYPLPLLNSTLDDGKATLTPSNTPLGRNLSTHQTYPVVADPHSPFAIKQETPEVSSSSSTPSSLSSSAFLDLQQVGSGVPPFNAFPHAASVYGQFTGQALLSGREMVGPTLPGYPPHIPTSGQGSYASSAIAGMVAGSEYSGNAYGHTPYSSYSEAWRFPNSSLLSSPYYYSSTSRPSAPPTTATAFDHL
- METHOD_SUMMARY: inhibitors of PAX8-driven TPO luciferase reporter, dose response, RMG-I cells, cherry-pick (AID 687027);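 also: luciferase reporter driven by Pax8 target thyroperoxidase promoter measured by SteadyGlo luminescence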
- Format: functional, cell-based
Active and inactive are the calls of the source.

The following compounds have reported results that may help.
COMPOUND	AC50
Cc1cc(Br)c(OCc2ccc(C(=O)N/N=C/c3ccc[nH]3)cc2)c(Br)c1	0.693 µM (active)
C[C@@H]1CN([C@@H](C)CO)C(=O)c2cc(NC(=O)Nc3ccc(C(F)(F)F)cc3)ccc2O[C@@H](C)CCCCO[C@H]1CN(C)Cc1ccncc1	8.41 µM (active)
CCOC(=O)C1=CN(Cc2cccc(-c3cccnc3)c2)S(=O)(=O)N(C)C1C (stereo not given)	59.2 µM (active)

// moving on: another record for AC50
What measured AC50 is associated with "C[C@H](CO)N1C[C@H](C)[C@@H](CN(C)Cc2ccc(C(F)(F)F)cc2)Oc2ccc(NS(=O)(=O)c3ccc(Cl)cc3)cc2CC1=O" on Paired box protein Pax-8 (Homo sapiens, UniProt Q06710)?
11.2 µM (active)

---

- System: Streptococcus
- METHOD_SUMMARY: Group A Streptococcus viability loss, dose response, counter-screen for streptokinase expression inhibitor project, luminescence, BacTiterGlo (AID 1915);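 also: potency for reduction of bacterial viability or growth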
- Type: functional, organism-based
Calls of active or inactive are those of the source.
Quick reference: EC50 of the listed items.

The following molecules have reported results that may help.
MOLECULE	EC50
O=c1cc2c(nn1Cc1ccc(Cl)cc1Cl)-c1ccccc1CC2	17.6 µM (active)
COc1ccc(/N=C2\S/C(=C\c3ccc(OC(C)C(=O)O)c(OC)c3)C(=O)N2CCc2c[nH]c3ccccc23)cc1 (configuration not stated)	4.41 µM (active)

I am curious: what EC50 value has been reported for "COc1cc(-c2ccc(NC(=O)NC3CC3)c(OC)c2)ccc1NC(=O)NC1CC1" ?
135 µM (active)

I am curious: what EC50 value has been reported for "CCOC(=O)C1=C(c2ccc(OC)cc2)C(=O)c2ccccc2C1=O" ?
6.2 µM (active)

I am curious: what EC50 value has been reported for "Brc1ccccc1C1Nc2cccc3cccc(c23)N1" ?
14.2 µM (active)

I am curious: what EC50 value has been reported for "CNC[C@H](CC1CCCCC1)NC[C@H](Cc1ccccc1)NCCC12CC3CC(CC(C3)C1)C2" ?
8.1 µM (active)

I am curious: what EC50 value has been reported for Oc1ccccc1C(Nc1nccs1)c1ccc2cccnc2c1O (configuration not stated) ?
6.55 µM (active)

---

- METHOD_SUMMARY: Luminescence Cell-Based Dose Confirmation HTS to Identify Inhibitors of Platelet Dense Granule Release. [Related pubchem assays: 1663 (Primary HTS), 1678 (Summary of Project)]
- Format: functional
Activity calls are given as the source filed them.
Quick reference: EC50 of the listed items.

SUBSTANCE_SMILES	EC50
Cc1cc(NC(=O)/C=C/c2cccc(Cl)c2)n(-c2nc3ccccc3[nH]2)n1	49.7 µM (active)
COc1ccccc1N1CCN(C(=O)c2cc(-c3ccccc3O)on2)CC1	> 112 µM (not active)
O=C(NCc1ccco1)c1ccc(-c2ccccc2Cl)o1	> 112 µM (not active)

I am curious: what EC50 value has been reported for "COc1ccccc1C(=O)NCCC(=O)Nc1ncccc1O" ?
> 112 µM (not active)

I am curious: what EC50 value has been reported for "Cn1cc(S(=O)(=O)N2CCOCC2)cc1C(=O)Nc1ccc(Cl)cc1" ?
> 112 µM (not active)
